Origin of the recorded values: ChEMBL document CHEMBL3808367

# Test system: Human immunodeficiency virus 1
# method notes: Antiviral activity against HIV1 NL4-3 assessed as inhibition of viral infection in human TZM-bl cells measured after 1 day by luciferase reporter gene assay
# Format: functional, organism-based
# assay setup: Human immunodeficiency virus 1, NL4-3, TZM-bl, 24 h
pEC50: −log10 of the molar value.
Rule: pEC50 of 8 or more gives Satisfied; anything lower gives Not satisfied.

Would you please look over these solved cases?
smi=CNC(=O)c1cc(N)c(Nc2ccc(C#N)cc2)cc1Oc1c(OC)cc(CCC#N)cc1OC assigned_category="Not satisfied"
smi=CNC(=O)c1cc(N)c(Nc2ccc(C#N)cc2)cc1Oc1c(Br)cc(CCC#N)cc1OC assigned_category=Satisfied
smi=Cc1cc(CCC#N)cc(C)c1Oc1cc(Nc2ccc(C#N)cc2)c(N)cc1C(=O)NC1CC1 assigned_category=Satisfied
smi=CC(=O)OCc1cc(N)c(Nc2ccc(C#N)cc2)cc1Oc1c(C)cc(CCC#N)cc1C assigned_category=Satisfied
smi=COc1cc(/C=C/C#N)cc(Br)c1Oc1ccc(N)c(Nc2ccc(C#N)cc2)n1 assigned_category=Satisfied

In plain terms: is recorded pEC50 at least 8 for Cc1cc(CCC#N)cc(C)c1Oc1cc(Nc2ccc(C#N)cc2)c(N)cc1C(=O)NC(C)C ?
Not satisfied

###

Listed below: CC50 values for each entry.
# method notes: Cytotoxicity against human TZM-bl cells assessed as reduction in cell viability after 1 day by CytoTox-Glo assay
# Assay type: cell-based
# assay setup: tzm, 24 h
# value in µM; strip the unit string

smi=CCNC(=O)c1cc(N)c(Nc2ccc(C#N)cc2)cc1Oc1c(C)cc(CCC#N)cc1C measurement_label=CC50 quantitative_readout=105
smi=COC(=O)c1cc(N)c(Nc2ccc(C#N)cc2)cc1Oc1c(OC)cc(CCC#N)cc1OC measurement_label=CC50 quantitative_readout=128
smi=CCOCc1cc(N)c(Nc2ccc(C#N)cc2)cc1Oc1c(C)cc(CCC#N)cc1C measurement_label=CC50 quantitative_readout=194
smi=CNC(=O)OCc1cc(N)c(Nc2ccc(C#N)cc2)cc1Oc1c(C)cc(CCC#N)cc1C measurement_label=CC50 quantitative_readout=46.8
smi=Cc1cc(CCC#N)cc(C)c1Oc1cc(Nc2ccc(C#N)cc2)c(N)cc1COC(=O)C1CC1 measurement_label=CC50 quantitative_readout=42.2
smi=Cc1cc(CCC#N)cc(C)c1Oc1cc(Nc2ccc(C#N)cc2)c(N)cc1CNC1CC1 measurement_label=CC50 quantitative_readout=25.5

GET /values?readout=CC50&item= Cc1cc(CCC#N)cc(C)c1Oc1cc(Nc2ccc(C#N)cc2)c(N)cc1Cl
10.4

For Cc1cc(CCC#N)cc(C)c1Oc1cc(Nc2ccc(C#N)cc2)c(N)cc1C(=O)NC1CC1 , what is its reported CC50?
121

Please report the recorded CC50 for CNC(=O)c1cc(N)c(Nc2ccc(C#N)cc2)cc1Oc1c(OC)cc(CCC#N)cc1OC .
42.6

Which measured CC50 value corresponds to COC(=O)c1cc(N)c(Nc2ccc(C#N)cc2)cc1Oc1c(Br)cc(CCC#N)cc1OC ?
10.1

# query: CC50 of entry Cc1cc(CCC#N)cc(C)c1Oc1cc(Nc2ccc(C#N)cc2)c(N)cc1Br
84.8

Fill blank: measured CC50 of the molecule CNC(=O)c1cc(N)c(Nc2ccc(C#N)cc2)cc1Oc1c(Br)cc(CCC#N)cc1OC is ____.
52.4
